# assayOverview: folding stability dG unfold (combined trypsin and chymotrypsin); higher = more stable
recordedMetric: folding stability dG unfold
State the result as a value with its unit after it.

Query :: For the sequence SAGGSAGGSFRIPKGDPNMKIRIIFQWPNGQPMPMEYTVTPDGTFKINIPGMPPNRIESIEIWSAGGSAGGS [r12_477_TrROS] , what folding stability dG unfold is on record?
Result :: 1.95 kcal/mol

Query :: For the sequence SAKLEIELNGYKIVSVEVNEDGTVKMKIEVDGKLYELTLKVKLPPPKVEVKEEKKEVKEVKFVKEGEEKSAG [r14_218_TrROS_Hall] , what folding stability dG unfold is on record?
Result :: 2.05 kcal/mol

Query :: For the sequence SAGGSAGGSAGGSPLVIKVDGPAEKLIEEIKKLFPNAKVLSIETHPDGGVTLVVEKIDESAGGSAGGSAGGS [r4_95_TrMRF] , what folding stability dG unfold is on record?
Result :: 2.03 kcal/mol

Query :: For the sequence SAGGSAGGSAGRRIVFQFPLGMPIDEIADELADNGYEVEINWEPDPNGWMTFVIEITPPDSAGGSAGGSAGG [r11_1050_TrROS] , what folding stability dG unfold is on record?
Result :: 1.97 kcal/mol

====

# assayOverview: folding stability dG unfold from chymotrypsin proteolysis; higher = more stable
recordedMetric: folding stability dG unfold (kcal/mol)
A number alone suffices; assume kcal/mol.

Query :: For the sequence SAGGSAEIAEKNGFKITVELHRYNDYIMVEIEIRWPGGQEFTVTIMIKIKIVPPKPPVDPNDPDNNSAGGSA [r15_843_TrROS] , what folding stability dG unfold is on record?
Result :: 4.47

Query :: For the sequence SAGGMKTFTLENPPLAPPDRPLGGSTLKLPDGTVLVRINLPSGETILLPSYEELEKLKASGEPVSVTASSAG [r5_42_JUSTAS] , what folding stability dG unfold is on record?
Result :: 0.254

Query :: For the sequence SAGEVELKIVLPKEEIEKILEALRKLAEEAGLEVEVEKIEKKEDGYYVITVTVKFKETEKEIKIEIIIPSAG [r5_41_TrROS_Hall] , what folding stability dG unfold is on record?
Result :: 2.55

Query :: For the sequence SAGGKEVKPIKGKVKITVNGKEIEVEVKKAKIVKNKDGSYYIFIEKDGKKLLIKLKNGKLVKIEEVPSAGGS [r16_721_TrROS_Hall] , what folding stability dG unfold is on record?
Result :: 3.89

Query :: For the sequence SAGGSAGGSAGGSMSSTVTTTLVEVGPPNGKRVLVRRTTTTFPDGSVTTTVTVLSTTIASAGGSAGGSAGGS [r4_496_JUSTAS] , what folding stability dG unfold is on record?
Result :: 2.61

Query :: For the sequence SAGGSETVEIELGSEDGTVYKIEIERFPETGLLLIKVDGPDPKVIEKVVKELGVDVVEVLEDGYVLLASAGG [r13_937_TrMRF] , what folding stability dG unfold is on record?
Result :: 1.89

Query :: For the sequence SAGGSAGAPLVLAEVELDPETGEVRIRVYDPVTGKVYEYTTPGSLADAIREIERETGIPITEVVVASAGGSA [r15_101_TrMRF] , what folding stability dG unfold is on record?
Result :: 3.73

Query :: For the sequence SAGGSSMPLEVTEVKKIGDKIVITLRVPPSVGPLSLGLTIELKSKPVTITSTFDPSTTTATIEVGLSAGGSA [r2_261_JUSTAS] , what folding stability dG unfold is on record?
Result :: 3.43

Query :: For the sequence SAGGSAGGSAGPVIRIPDATVTTDPATGTLTVTTAGRTVTVPPGATVTVLPDGTVVVERPSAGGSAGGSAGG [r17_34_JUSTAS] , what folding stability dG unfold is on record?
Result :: 0.759

Query :: For the sequence SAGGDPSATPVVVEFTLPDGARAVATTFPSGVVVARVFNPVTGRTTEVTVTVVPESATATVTVRPNPDSAGG [r13_822_TrMRF] , what folding stability dG unfold is on record?
Result :: 1.13

Query :: For the sequence SAGGSAGGSAGGSSVKLTLPDGSQVTVDIHPDGTATVTTFPGDTPSVTNMPVSAFQAALPSAGGSAGGSAGG [r7_178_JUSTAS] , what folding stability dG unfold is on record?
Result :: 1.79

====

# assayOverview: folding stability dG unfold (combined trypsin and chymotrypsin); higher = more stable
I'd be grateful if you could share measured folding stability dG unfold for these entries.
A number alone suffices; assume kcal/mol.

Query :: For the sequence SAGGSAGGSAGMKPGQEVRVEVPVPNNGKKIKIPVYVPPGYTPKQAKNMAIMMAKMIREMSAGGSAGGSAGG [r11_355_TrROS] , what folding stability dG unfold is on record?
Result :: 0.0699

Query :: For the sequence SAGGSAGGSAGMVIEDPSGVTTVVTFDTSVPVVTTTTLTKDPNSNNYTTTTTTTPVTVPVSAGGSAGGSAGG [r17_491_JUSTAS] , what folding stability dG unfold is on record?
Result :: 1.06

Query :: For the sequence SAKKKYIAKVLIEKGDKIIEIEIPGDATVKNPDGKEYTFKVESPEKLKEAIKKLFPEKYPAKILEVKEESAG [r14_41_TrMRF] , what folding stability dG unfold is on record?
Result :: 1.54

====

I'd be grateful if you could share measured folding stability dG unfold for these entries.
# assayOverview: folding stability dG unfold (combined trypsin and chymotrypsin); higher = more stable

Query :: For the sequence SAGGSAGGSAGGPIRIKNIENVNPDDGMFTVDVEFPDGKNHTYMIPPDQLEEPGDEIEIPSAGGSAGGSAGG [r7_117_TrROS] , what folding stability dG unfold is on record?
Result :: < -1 kcal/mol

Query :: For the sequence SAGGSAMKIEVEEFPVLVPPELIPELKDKPGAIVKVKKVKFYAEAPEEEREKLKKELEEKTGIKTESAGGSA [r15_347_TrMRF] , what folding stability dG unfold is on record?
Result :: < -1 kcal/mol

Query :: For the sequence SAGGSAGGSAGEPVKIPITIKMRDNGKPREQPFKVEVEPNPDGNTQHKLNMPEGNITEIESAGGSAGGSAGG [r11_816_TrROS] , what folding stability dG unfold is on record?
Result :: < -1 kcal/mol

====

I'd be grateful if you could share measured folding stability dG unfold for these entries.
# assayOverview: folding stability dG unfold (combined trypsin and chymotrypsin); higher = more stable

Query :: For the sequence SAGGSGMRKFSPEEAKKKEVVITIPVVTYSPSLKFSPVTVPVTVSGPVTSDEEAKEKVEKAVKELASAGGSA [r2_244_JUSTAS] , what folding stability dG unfold is on record?
Result :: < -1 kcal/mol

Query :: For the sequence SAGGSAGGSAGIKIPSNYKYKIEKSKDDYYEIYTEDKNKKFIVPKNAPIVVFEDNTVYVKSAGGSAGGSAGG [r17_49_TrMRF] , what folding stability dG unfold is on record?
Result :: < -1 kcal/mol

Query :: For the sequence SAGGSAGGSAGRTIMIPPNQTAEEAVNHLKEELPPGNKNVTINYWDGDGEWEKFEIEVKKSAGGSAGGSAGG [r17_215_TrROS] , what folding stability dG unfold is on record?
Result :: < -1 kcal/mol

Query :: For the sequence SAGGSAGGSAGGSNIKELAKELWDKNPGPRPIRFKGNGYKIRFQMPPEGRLRPVEIEKNSAGGSAGGSAGGS [r4_438_TrROS] , what folding stability dG unfold is on record?
Result :: < -1 kcal/mol

Query :: For the sequence SMVYVPEKNVIIEESEKLFYDPNKPRDLRVKTTPVIEVSPSGEKKTLKTEITFYNPEGNPIFTEESEIEISA [r9_383_JUSTAS] , what folding stability dG unfold is on record?
Result :: < -1 kcal/mol

Query :: For the sequence SAGGSKDKKMPPEQAKQVQVRVEIPIRVYRPGDGGEPHDFPIEIWGPMKSPEEADKEVNDAIDEFFSAGGSA [r2_244_TrROS] , what folding stability dG unfold is on record?
Result :: < -1 kcal/mol

====

# assayOverview: folding stability dG unfold (combined trypsin and chymotrypsin); higher = more stable
Lab note: anything with folding stability dG unfold at or over 2 kcal/mol counts as t; the rest go in f.

Query :: Determine whether measured folding stability dG unfold meets or exceeds 2 kcal/mol for SAGGSAGGEIRERLRELIEQLPEEELVVRIRRNGEEVELTFRTREDLEAALEANPEAEIEIVRRSAGGSAGG [r6_421_TrROS_Hall]
Result :: t

Query :: Determine whether measured folding stability dG unfold meets or exceeds 2 kcal/mol for SAGGMIVIEKEEDGFYRITIRNKETGEEVEEIPISKEELEELLKEAEENMSLEEIAEKLGLEIEIEKVSAGG [r13_836_TrROS_Hall]
Result :: f

Query :: Determine whether measured folding stability dG unfold meets or exceeds 2 kcal/mol for SAGGSAGGSAGGENNWMIFIEIKIEWEIKPTPDGKWKWEPEIEIKSIRIMPPNSPAAKDLSAGGSAGGSAGG [r7_889_TrROS]
Result :: t

Query :: Determine whether measured folding stability dG unfold meets or exceeds 2 kcal/mol for SAGGSAGGSAGGKMWIMIPKNEPINLPPGFDKVEIMTNPDDGYVMIRVDSPEDFKRLLEASAGGSAGGSAGG [r7_172_TrROS]
Result :: f

Query :: Determine whether measured folding stability dG unfold meets or exceeds 2 kcal/mol for SMKVTLDGKGSVTTMPAEQLEVLIKELKEKGYKVKILSEEPDPNSDTVNYTIEITPPKPEKEEFENEELKSA [r9_448_JUSTAS]
Result :: f

Query :: Determine whether measured folding stability dG unfold meets or exceeds 2 kcal/mol for SAGGSAGGSAGGGSVHMPPLINWQEEEFEYESEEPVHIKRLVYKHPYSNEVEEEIEILLSAGGSAGGSAGGS [r10_881_JUSTAS]
Result :: f

Query :: Determine whether measured folding stability dG unfold meets or exceeds 2 kcal/mol for SAGEKKIKIEIKEIKPHENGYLSIKAKAYLEDGKKVAEVYEPYPPNLSLEELIEKVIERLEKEVKEKGESAG [r5_697_TrMRF]
Result :: f

Query :: Determine whether measured folding stability dG unfold meets or exceeds 2 kcal/mol for KKKYLVLLEARPRLYEFDENGKLIREIPLLVPFIGEGNDPEKVKEAAEKLFGEEVKILEVFPLEEVEEGKIS [r1_493_TrMRF]
Result :: t

Query :: Determine whether measured folding stability dG unfold meets or exceeds 2 kcal/mol for SAGGSAGGSAGGGLRKITFETPLSDFEELVKALGLNVVSAEVEPGAGGLAKVTLLVEEGSAGGSAGGSAGGS [r10_999_TrMRF]
Result :: f

Query :: Determine whether measured folding stability dG unfold meets or exceeds 2 kcal/mol for SAGAMLTLELTVEADSPEEAIERAKEIAKELIKKEYPELSKNTKIEKITAEPTPGPEVKVTITIKIDPGSAG [r5_320_JUSTAS]
Result :: t

Query :: Determine whether measured folding stability dG unfold meets or exceeds 2 kcal/mol for SAGGKEWYIKVSIEHRNPNNGEKRELSITIPVEGMSAEEALDIARELARHLPPENVKIEVDIVPLDDSAGGS [r16_774_TrROS]
Result :: f

Query :: Determine whether measured folding stability dG unfold meets or exceeds 2 kcal/mol for SAGGSAGGSMEVNLKVTVTYPDGTVVELEIPKVSTEDGKSVEDVAKEIEALPDVKEVEVEIVESAGGSAGGS [r12_199_JUSTAS]
Result :: f

Query :: Determine whether measured folding stability dG unfold meets or exceeds 2 kcal/mol for SAGGSAGVLEAVVFNPETGTFSVIPAAVLEKAFAANPADTELTFTLKDKPVKVFVFPGPGLAVVTGSAGGSA [r15_350_TrMRF]
Result :: f

Query :: Determine whether measured folding stability dG unfold meets or exceeds 2 kcal/mol for SAGGSAGGSAGGSKIYKLKVNGSVEKLIENLKKAGFKVEILSVYYDPETKELYVLFKISSAGGSAGGSAGGS [r4_315_TrMRF]
Result :: t

Query :: Determine whether measured folding stability dG unfold meets or exceeds 2 kcal/mol for SAGGSAGGSASEIMDEFPNLEIDNVNPDHGMMIIKWPDGWYWRVNVGNGEIEPVSPEDLEDMSAGGSAGGSA [r18_381_TrROS]
Result :: f

Query :: Determine whether measured folding stability dG unfold meets or exceeds 2 kcal/mol for SAGGSAGGSAGASLKEELGFAEVLSRSPTPDTEPLLLKHPEGGELVTVEVDAATAVEWLESAGGSAGGSAGG [r11_630_JUSTAS]
Result :: f
